- Tested on: HeLa cells
- ASSAY OVERVIEW: MTT antiproliferative assay, HeLa
- Type: cell-based, human
- STATED CONDITIONS: Homo sapiens, read-out: In vitro antiproliferative activity IC50, HeLa
MEASURED PARAMETER: IC50 (µM)
Give the number; µM is assumed, so skip it.

Some solved entries appear below for comparison.
- COMPOUND: "COc1ccc(/C=N/NC(=O)c2ccc(N3N=C(c4cc(F)cc(F)c4)CC3c3ccc4ccccc4c3)cc2)cc1 (stereo not shown)"
  SYSTEM UNDER TEST: "HeLa cells"
  MEASURED PARAMETER: "IC50"
  VALUE UNIT: "µM"
  DATA VALUE: 47.7
- COMPOUND: "COc1ccc(/C=N/NC(=O)c2ccc(N3N=C(c4cccc(F)c4)CC3c3ccc4ccccc4c3)cc2)cc1 (stereo not shown)"
  SYSTEM UNDER TEST: "HeLa cells"
  MEASURED PARAMETER: "IC50"
  VALUE UNIT: "µM"
  DATA VALUE: 85.2
- COMPOUND: "COc1ccc(/C=N/NC(=O)c2ccc(N3N=C(c4ccc(C)cc4)CC3c3ccc4ccccc4c3)cc2)cc1 (stereo not shown)"
  SYSTEM UNDER TEST: "HeLa cells"
  MEASURED PARAMETER: "IC50"
  VALUE UNIT: "µM"
  DATA VALUE: 0.15

Next item in the queue.
// COc1ccc(/C=N/NC(=O)c2ccc(N3N=C(c4ccc(F)cc4)CC3c3ccc4ccccc4c3)cc2)cc1 (stereo not shown) : IC50 value = 54.2

###

- Tested on: 293T human kidney epithelial cells
- ASSAY OVERVIEW: Cytotoxicity test (MTT) on 293T cells
- STATED CONDITIONS: read-out: median cytotoxic concentration CC50; 293T cells, MTT assay, 24 h
MEASURED PARAMETER: CC50 (µM)
Please give a number only; it is taken to be in µM.

- COMPOUND: "COc1cccc(/C=N/NC(=O)c2ccc(N3N=C(c4ccccc4)CC3c3ccc4ccccc4c3)cc2)c1 (stereo not shown)"
  CC50 (µM): 98.6
- COMPOUND: "COc1cccc(/C=N/NC(=O)c2ccc(N3N=C(c4cccc(C)c4)CC3c3ccc4ccccc4c3)cc2)c1 (stereo not shown)"
  CC50 (µM): 92.3
- COMPOUND: "COc1ccc(/C=N/NC(=O)c2ccc(N3N=C(c4ccccc4C)CC3c3ccc4ccccc4c3)cc2)cc1 (stereo not shown)"
  CC50 (µM): 90.6
- COMPOUND: "COc1cccc(/C=N/NC(=O)c2ccc(N3N=C(c4ccccc4C)CC3c3ccc4ccccc4c3)cc2)c1 (stereo not shown)"
  CC50 (µM): 87.5
- COMPOUND: "COc1ccc(/C=N/NC(=O)c2ccc(N3N=C(c4ccccc4)CC3c3ccc4ccccc4c3)cc2)cc1 (stereo not shown)"
  CC50 (µM): 94.2
- COMPOUND: "COc1cccc(/C=N/NC(=O)c2ccc(N3N=C(c4ccc(C)cc4)CC3c3ccc4ccccc4c3)cc2)c1 (stereo not shown)"
  CC50 (µM): 98.8

The record that follows has no CC50 shown yet.
Entry under test: COc1ccc(/C=N/NC(=O)c2ccc(N3N=C(c4cccc(C)c4)CC3c3ccc4ccccc4c3)cc2)cc1 (stereo not shown) . Its CC50 was 92.6
